Biological target: T1, human Ang-2 (human, UniProt O15123)
T1 chain: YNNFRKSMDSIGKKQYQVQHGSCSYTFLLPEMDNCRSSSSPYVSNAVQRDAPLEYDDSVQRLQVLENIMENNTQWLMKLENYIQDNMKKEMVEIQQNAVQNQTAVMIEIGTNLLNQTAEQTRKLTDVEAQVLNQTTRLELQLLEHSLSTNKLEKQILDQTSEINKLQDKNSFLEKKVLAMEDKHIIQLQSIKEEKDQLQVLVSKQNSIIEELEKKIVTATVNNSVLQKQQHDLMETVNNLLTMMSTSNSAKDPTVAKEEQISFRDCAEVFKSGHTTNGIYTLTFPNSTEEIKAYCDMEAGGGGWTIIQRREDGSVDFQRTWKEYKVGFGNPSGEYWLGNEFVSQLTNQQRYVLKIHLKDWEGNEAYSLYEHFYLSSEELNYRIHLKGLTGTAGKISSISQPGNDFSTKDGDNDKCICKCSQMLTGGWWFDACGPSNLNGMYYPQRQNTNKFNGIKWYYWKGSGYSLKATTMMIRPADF
Assay: competition ELISA vs Tie-2
Primed or numbered codes have the meaning given here. Where no end group is shown, it is not given here. [ ]: non-standard residue; d: D form. Fc(3) = Fc: non-antigen-binding fragment of an antibody from proteolytic digestion of a whole antibody (vehicle); Fc(4) = non-antigen-binding fragment of an antibody (from proteolytic digestion of a whole antibody); Fc = immunoglobulin Fc domain fused to the peptide (peptibody); Fc″ = Fc domain of the peptibody fusion
Below, each entry is listed alongside its reported IC50.
Answer in nM, number only, no unit symbol.

# BINDER, IC50, nM
data = [
    ("MGAQHTFQPLDELEETLYYQWLYDQLLEGGGGG-{Fc″} [L1-21 (N)]", 0.179),
    ("MGAQTNFMPMDDLEQRLYEQFILQQGLEGGGGG-Fc [L1-7 (N)]", 0.046),
    ("M[Fc(4)]GGGGGAQPIRQEECDWDPWTCEHMWEVLE (not fully specified; cysteine pairing not given here) [Con4-44 (C)]", 0.08),
    ("M[Fc]GGGGGAQTNIQEECEWDPWTCDHMPGKLE (not fully specified; cysteine pairing not given here) [Con4-40 (C)]", 0.2),
    ("MGAQQKFQPLDELEQTLYEQFMLQQALEGGGGG[Fc(3)] [L1-10 (N)]", 0.06),
]

Shift focus to the following entry.
Can you share its IC50? I mean this binder: M[Fc]GGGGGAQQEECEWDPWTCEHMLE (not fully specified (bridges); printed as M-Fc-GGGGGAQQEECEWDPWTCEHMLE; cysteine pairing not given here; also: Fc fusion domain at position 2) [Con4 (C)]
0.197

All figures here come from patent US7205275.
